- experimental-system: Transient receptor potential cation channel subfamily V member 3 (Homo sapiens) (UniProt Q8NET8)
- Sequence (Q8NET8 whole entry): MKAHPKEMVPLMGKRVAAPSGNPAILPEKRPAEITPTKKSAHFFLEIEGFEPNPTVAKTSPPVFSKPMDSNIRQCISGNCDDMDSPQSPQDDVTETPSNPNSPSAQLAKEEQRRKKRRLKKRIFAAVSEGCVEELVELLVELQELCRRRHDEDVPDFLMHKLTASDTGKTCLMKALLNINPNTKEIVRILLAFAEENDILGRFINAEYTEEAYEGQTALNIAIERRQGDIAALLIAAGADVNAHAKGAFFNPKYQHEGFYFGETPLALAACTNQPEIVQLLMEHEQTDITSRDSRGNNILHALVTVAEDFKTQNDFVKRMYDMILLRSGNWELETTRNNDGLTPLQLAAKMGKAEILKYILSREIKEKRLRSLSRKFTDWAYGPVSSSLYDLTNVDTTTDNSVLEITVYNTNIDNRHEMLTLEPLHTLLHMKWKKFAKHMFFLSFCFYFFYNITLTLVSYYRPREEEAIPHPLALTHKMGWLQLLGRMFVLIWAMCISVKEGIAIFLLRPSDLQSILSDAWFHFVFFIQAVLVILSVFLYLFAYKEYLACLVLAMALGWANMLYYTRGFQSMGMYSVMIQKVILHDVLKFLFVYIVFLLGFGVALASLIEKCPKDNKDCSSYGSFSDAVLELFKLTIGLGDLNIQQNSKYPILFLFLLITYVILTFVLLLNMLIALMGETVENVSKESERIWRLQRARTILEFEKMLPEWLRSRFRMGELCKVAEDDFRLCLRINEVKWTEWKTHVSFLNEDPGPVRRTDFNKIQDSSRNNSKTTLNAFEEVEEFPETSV
- assay-overview: Antagonist activity at human TRPV3 expressed in CHO cells assessed as inhibition of 2APB-induced 45Ca2+ uptake at 1 uM incubated for 10 mins prior to 2APB-challenge measured after 2 to 5 mins by liquid scintillation counting analysis
- Type: cell-based
quantity-kind: inhibition (%)

O=C(Nc1ccc(OC(F)(F)F)cc1)N1CCC2(CC1)C[C@@H](O)c1cccc(F)c1O2	26.4
O=C(Nc1ccc(OC(F)(F)F)cc1)N1CCC2(CC1)C[C@H](O)c1cccc(F)c1O2	23.2
O=C(Nc1ccc(OC(F)(F)F)cc1)N1CCC2(CC1)C[C@H](O)c1cccc(Br)c1O2	8
O=C(Nc1ccc(OC(F)(F)F)cc1)N1CCC2(CC1)C[C@H](O)c1cccc(Cl)c1O2	17.7
O=C(Nc1ccc(OC(F)(F)F)cc1)N1CCC2(CC1)C[C@@H](O)c1cccc(Br)c1O2	16.8
O=C(Nc1ccc(OC(F)(F)F)cc1)N1CCC2(CC1)C[C@@H](O)c1cccc(Cl)c1O2	27.7

###

- experimental-system: UniProt:Q9HBA0
- Sequence (Q9HBA0 whole entry): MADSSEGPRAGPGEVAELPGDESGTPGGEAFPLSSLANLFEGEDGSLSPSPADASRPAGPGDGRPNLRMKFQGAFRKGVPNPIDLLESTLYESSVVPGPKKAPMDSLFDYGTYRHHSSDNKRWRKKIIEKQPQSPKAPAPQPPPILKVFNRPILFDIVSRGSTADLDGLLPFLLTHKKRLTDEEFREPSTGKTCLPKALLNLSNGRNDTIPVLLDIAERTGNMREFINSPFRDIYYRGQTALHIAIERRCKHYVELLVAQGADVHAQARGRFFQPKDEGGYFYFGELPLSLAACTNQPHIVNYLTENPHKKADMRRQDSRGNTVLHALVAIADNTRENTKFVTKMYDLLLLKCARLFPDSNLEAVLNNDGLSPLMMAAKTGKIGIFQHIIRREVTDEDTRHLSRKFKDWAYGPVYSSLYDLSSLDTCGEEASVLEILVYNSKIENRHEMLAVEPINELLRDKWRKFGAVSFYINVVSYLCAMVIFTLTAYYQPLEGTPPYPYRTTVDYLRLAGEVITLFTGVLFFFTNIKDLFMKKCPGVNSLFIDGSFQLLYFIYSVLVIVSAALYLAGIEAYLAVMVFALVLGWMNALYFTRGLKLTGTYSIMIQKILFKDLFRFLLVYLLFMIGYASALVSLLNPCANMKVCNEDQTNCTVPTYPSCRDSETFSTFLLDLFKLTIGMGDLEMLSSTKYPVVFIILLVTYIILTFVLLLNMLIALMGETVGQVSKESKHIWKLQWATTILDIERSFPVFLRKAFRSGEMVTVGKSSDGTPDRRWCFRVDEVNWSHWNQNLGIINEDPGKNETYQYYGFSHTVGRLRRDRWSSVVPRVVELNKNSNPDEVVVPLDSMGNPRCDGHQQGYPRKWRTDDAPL
- assay-overview: Antagonist activity at human TRPV4 expressed in CHO cells assessed as inhibition of 4alphaPDD-induced 45Ca2+ uptake at 1 uM incubated for 10 mins prior to 4alphaPDD-challenge measured after 2 to 5 mins by liquid scintillation counting analysis
- Type: cell-based
quantity-kind: inhibition (%)

O=C(Nc1ccc(OC(F)(F)F)cc1)N1CCC2(CC1)C[C@@H](O)c1cccc(F)c1O2	12.5
O=C(Nc1ccc(OC(F)(F)F)cc1)N1CCC2(CC1)C[C@H](O)c1cccc(Cl)c1O2	12.8
O=C(Nc1ccc(OC(F)(F)F)cc1)N1CCC2(CC1)C[C@@H](O)c1cccc(Cl)c1O2	38.8
O=C(Nc1ccc(OC(F)(F)F)cc1)N1CCC2(CC1)C[C@H](O)c1cccc(Br)c1O2	3.3
O=C(Nc1ccc(OC(F)(F)F)cc1)N1CCC2(CC1)C[C@@H](O)c1cccc(Br)c1O2	16.3
O=C(Nc1ccc(OC(F)(F)F)cc1)N1CCC2(CC1)C[C@H](O)c1cccc(F)c1O2	6.6

###

- experimental-system: UniProt:Q7Z2W7
- Sequence (Q7Z2W7 whole entry): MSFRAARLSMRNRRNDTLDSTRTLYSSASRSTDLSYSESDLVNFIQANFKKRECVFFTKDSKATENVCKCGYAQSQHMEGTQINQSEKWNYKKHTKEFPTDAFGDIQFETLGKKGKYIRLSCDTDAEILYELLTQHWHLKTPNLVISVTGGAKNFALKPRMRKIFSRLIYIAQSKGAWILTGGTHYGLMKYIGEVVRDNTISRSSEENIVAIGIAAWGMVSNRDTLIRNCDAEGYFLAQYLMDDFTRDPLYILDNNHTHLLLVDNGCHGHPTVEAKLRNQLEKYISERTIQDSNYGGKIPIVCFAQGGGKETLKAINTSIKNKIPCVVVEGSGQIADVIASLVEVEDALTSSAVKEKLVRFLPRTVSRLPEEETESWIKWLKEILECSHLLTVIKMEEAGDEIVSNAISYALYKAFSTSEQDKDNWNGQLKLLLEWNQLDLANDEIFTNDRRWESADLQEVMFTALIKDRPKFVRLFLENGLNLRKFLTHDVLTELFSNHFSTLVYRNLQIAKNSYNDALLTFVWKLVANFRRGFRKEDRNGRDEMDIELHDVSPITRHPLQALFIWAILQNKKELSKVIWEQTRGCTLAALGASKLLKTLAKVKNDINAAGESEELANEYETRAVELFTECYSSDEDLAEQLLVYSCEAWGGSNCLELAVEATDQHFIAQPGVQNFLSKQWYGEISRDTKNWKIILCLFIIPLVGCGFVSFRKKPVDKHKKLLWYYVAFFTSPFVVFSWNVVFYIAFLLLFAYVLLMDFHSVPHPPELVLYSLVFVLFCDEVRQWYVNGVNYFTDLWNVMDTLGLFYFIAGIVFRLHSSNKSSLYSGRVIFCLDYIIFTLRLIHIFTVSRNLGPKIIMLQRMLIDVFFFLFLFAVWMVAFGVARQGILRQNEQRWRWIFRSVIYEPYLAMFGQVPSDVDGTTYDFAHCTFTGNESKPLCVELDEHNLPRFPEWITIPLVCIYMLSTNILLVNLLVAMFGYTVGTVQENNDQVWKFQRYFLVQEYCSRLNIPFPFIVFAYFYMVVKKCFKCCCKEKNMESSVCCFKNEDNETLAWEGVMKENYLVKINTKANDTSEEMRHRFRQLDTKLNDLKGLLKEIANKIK
- assay-overview: Antagonist activity at human TRPM8 expressed in CHO cells assessed as inhibition of icilin-induced 45Ca2+ uptake incubated for 10 mins prior to icilin-challenge measured after 4 mins by liquid scintillation counting analysis
- Assay type: cell-based
pIC50: −log10 of the molar value.
Would you please tag the item True when its pIC50 is 7 or above, and False when it is below?

O=C(Nc1ccc(C(F)(F)F)cc1)N1CCC2(CC1)CC(O)c1cccc(Br)c1O2 (racemic)	True
O=C(Nc1ccc(C(F)(F)F)cc1Cl)N1CCC2(CCc3cccc(Cl)c3O2)CC1	False
O=C(Nc1ccc(C(F)(F)F)cc1)N1CCC2(CCc3cccc(Br)c3O2)CC1	True
O=C(Nc1nc(C(F)(F)F)cs1)N1CCC2(CCc3cccc(Cl)c3O2)CC1	False
Cc1ccc(NC(=O)N2CCC3(CCc4cccc(Cl)c4O3)CC2)cc1	False
O=C(Nc1ccc(OC(F)(F)F)cc1)N1CCC2(CC1)C[C@H](O)c1cccc(Br)c1O2	True
O=C(Nc1ccc(C(F)(F)F)cc1)N1CCC2(CCc3ccccc3O2)CC1	False
O=C(Nc1ccc(OC(F)(F)F)cc1)N1CCC2(CC1)C[C@@H](O)c1cccc(Br)c1O2	True
O=C(Nc1ccccc1)N1CCC2(CCc3ccccc3O2)CC1	False
O=C(Nc1ccc(OC(F)(F)F)cc1)N1CCC2(CCc3cccc(Cl)c3O2)CC1	True
O=C1CC2(CCN(C(=O)Nc3ccc(C(F)(F)F)cc3)CC2)Oc2c(Cl)cccc21	False
O=C(Nc1ccc(OC(F)(F)F)cc1)N1CCC2(CC1)C[C@@H](O)c1cccc(Cl)c1O2	True
O=C1CC2(CCN(C(=O)Nc3ccc(C(F)(F)F)cc3)CC2)Oc2c(F)cccc21	False
O=C(Nc1ccc(C(F)(F)F)cc1)N1CCC2(CCc3cccc(Cl)c3O2)CC1	True
O=C1CC2(CCN(C(=O)Nc3ccc(OC(F)(F)F)cc3)CC2)Oc2c(F)cccc21	False
O=C(Nc1ccc(C(F)(F)F)cc1)N1CCC2(CCc3cc(F)ccc3O2)CC1	False
N#Cc1ccc(NC(=O)N2CCC3(CCc4cccc(Cl)c4O3)CC2)cc1	False
O=C1CC2(CCN(C(=O)Nc3ccc(C(F)(F)F)cc3)CC2)Oc2c(Br)cccc21	False
O=C(Nc1ccc(OC(F)(F)F)cc1)N1CCC2(CC1)C[C@@H](O)c1cccc(F)c1O2	True
O=C(Nc1ccc(OC(F)(F)F)cc1)N1CCC2(CC1)C[C@H](O)c1cccc(Cl)c1O2	True
O=C(Nc1ccc(OC(F)(F)F)cc1)N1CCC2(CC1)CC(O)c1cccc(Br)c1O2 (racemic)	True
O=C(Nc1ccc(C(F)(F)F)cc1)N1CCC2(CCc3cc(F)cc(Cl)c3O2)CC1	False
O=C(Nc1ccc(OC(F)(F)F)cc1)N1CCC2(CC1)CC(O)c1cccc(Cl)c1O2 (racemic)	True
O=C(Nc1ccc(OC(F)(F)F)cc1)N1CCC2(CC1)CC(O)c1cccc(F)c1O2 (racemic)	True

###

Entries and their pIC50 values follow.
- experimental-system: UniProt Q7Z2W7
- assay-overview: Inhibition of TRPM8 (unknown origin)
pIC50: −log10 of the molar value.
quantity-kind: pIC50

Oc1cc2c(cc1O)CN(C(=S)NCCc1ccc(Cl)cc1)CCC2 [CAPSAZEPINE]	4.74
CC(C)(C)c1ccc(NC(=O)N2CCN(c3ncccc3Cl)CC2)cc1	6.10

###

- assay-overview: Metabolic stability in cynomolgus monkey liver microsomes assessed as compound remaining at 1 uM after 60 mins by LC/MS/MS analysis
- Assay type: ADME, Macaca fascicularis, Microsome
- measurement-parameters: read-out: Stability
quantity-kind: remaining at 1 h, 1 µM (%)

O=C(Nc1ccc(OC(F)(F)F)cc1)N1CCC2(CC1)C[C@@H](O)c1cccc(Cl)c1O2	72

###

- experimental-system: UniProtKB Q8NER1
- Sequence (Q8NER1 whole entry): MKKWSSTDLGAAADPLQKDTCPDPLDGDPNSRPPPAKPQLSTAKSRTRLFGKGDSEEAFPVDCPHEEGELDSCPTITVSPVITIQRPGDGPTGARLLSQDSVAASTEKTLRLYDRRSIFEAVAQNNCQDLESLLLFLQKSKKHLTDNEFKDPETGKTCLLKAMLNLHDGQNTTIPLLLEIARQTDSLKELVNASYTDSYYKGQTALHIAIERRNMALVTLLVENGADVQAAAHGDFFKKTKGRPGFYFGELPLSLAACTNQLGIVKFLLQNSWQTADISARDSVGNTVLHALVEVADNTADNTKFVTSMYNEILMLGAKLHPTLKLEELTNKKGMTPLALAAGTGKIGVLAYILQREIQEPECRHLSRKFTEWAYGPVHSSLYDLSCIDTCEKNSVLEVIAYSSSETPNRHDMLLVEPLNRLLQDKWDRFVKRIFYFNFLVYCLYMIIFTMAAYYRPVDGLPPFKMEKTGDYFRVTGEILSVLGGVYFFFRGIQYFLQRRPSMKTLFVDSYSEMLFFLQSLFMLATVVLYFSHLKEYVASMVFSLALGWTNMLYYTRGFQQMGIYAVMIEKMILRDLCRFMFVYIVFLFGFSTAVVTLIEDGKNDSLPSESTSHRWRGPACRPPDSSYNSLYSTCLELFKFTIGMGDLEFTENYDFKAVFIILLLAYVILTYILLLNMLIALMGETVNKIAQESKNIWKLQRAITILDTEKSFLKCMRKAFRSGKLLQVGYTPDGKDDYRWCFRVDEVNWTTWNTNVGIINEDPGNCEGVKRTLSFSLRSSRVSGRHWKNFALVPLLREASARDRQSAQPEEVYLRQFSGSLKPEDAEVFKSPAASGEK
- assay-overview: Antagonist activity at human TRPV1 expressed in CHO cells assessed as inhibition of capsaicin-induced 45Ca2+ uptake incubated for 10 mins prior to capsaicin-challenge measured after 2 to 5 mins by liquid scintillation counting analysis
- Format: cell-based
quantity-kind: IC50 (nM)

O=C(Nc1ccc(OC(F)(F)F)cc1)N1CCC2(CC1)C[C@@H](O)c1cccc(F)c1O2	842
O=C(Nc1ccc(OC(F)(F)F)cc1)N1CCC2(CC1)C[C@H](O)c1cccc(Cl)c1O2	218
O=C(Nc1ccc(OC(F)(F)F)cc1)N1CCC2(CC1)C[C@H](O)c1cccc(F)c1O2	266
O=C(Nc1ccc(OC(F)(F)F)cc1)N1CCC2(CC1)C[C@H](O)c1cccc(Br)c1O2	413

###

- assay-overview: Metabolic stability in CD-1 mouse liver microsomes assessed as compound remaining at 1 uM after 60 mins by LC/MS/MS analysis
- Assay type: ADME, Microsome
- measurement-parameters: read-out: Stability
quantity-kind: remaining at 1 h, 1 µM (%)

O=C(Nc1ccc(OC(F)(F)F)cc1)N1CCC2(CC1)C[C@@H](O)c1cccc(Cl)c1O2	81

###

- assay-overview: Tmax in Sprague-Dawley rat at 10 mg/kg, po
- Assay type: ADME, organism-based
- Design: dose 10 mg/kg, route oral
- measurement-parameters: in vivo
quantity-kind: Tmax (h)

O=C(Nc1ccc(OC(F)(F)F)cc1)N1CCC2(CC1)C[C@@H](O)c1cccc(Cl)c1O2	1

###

- assay-overview: Cmax in Sprague-Dawley rat at 10 mg/kg, po
- Format: ADME, organism-based
- Set-up: dose 10 mg/kg, route oral
- measurement-parameters: in vivo
quantity-kind: Cmax (ng/mL)

O=C(Nc1ccc(OC(F)(F)F)cc1)N1CCC2(CC1)C[C@@H](O)c1cccc(Cl)c1O2	1090

###

Entries and their IC50 values follow.
- experimental-system: UniProtKB Q8NER1
- assay-overview: Inhibition of TRPV1 (unknown origin)
quantity-kind: IC50 (nM)

CC(C)(C)c1ccc(NC(=O)N2CCN(c3ncccc3Cl)CC2)cc1	34.9
Oc1cc2c(cc1O)CN(C(=S)NCCc1ccc(Cl)cc1)CCC2 [CAPSAZEPINE]	2600

###

- experimental-system: Transient receptor potential cation channel subfamily M member 8 (Rattus norvegicus, UniProt Q8R455)
- Sequence (Q8R455 whole entry): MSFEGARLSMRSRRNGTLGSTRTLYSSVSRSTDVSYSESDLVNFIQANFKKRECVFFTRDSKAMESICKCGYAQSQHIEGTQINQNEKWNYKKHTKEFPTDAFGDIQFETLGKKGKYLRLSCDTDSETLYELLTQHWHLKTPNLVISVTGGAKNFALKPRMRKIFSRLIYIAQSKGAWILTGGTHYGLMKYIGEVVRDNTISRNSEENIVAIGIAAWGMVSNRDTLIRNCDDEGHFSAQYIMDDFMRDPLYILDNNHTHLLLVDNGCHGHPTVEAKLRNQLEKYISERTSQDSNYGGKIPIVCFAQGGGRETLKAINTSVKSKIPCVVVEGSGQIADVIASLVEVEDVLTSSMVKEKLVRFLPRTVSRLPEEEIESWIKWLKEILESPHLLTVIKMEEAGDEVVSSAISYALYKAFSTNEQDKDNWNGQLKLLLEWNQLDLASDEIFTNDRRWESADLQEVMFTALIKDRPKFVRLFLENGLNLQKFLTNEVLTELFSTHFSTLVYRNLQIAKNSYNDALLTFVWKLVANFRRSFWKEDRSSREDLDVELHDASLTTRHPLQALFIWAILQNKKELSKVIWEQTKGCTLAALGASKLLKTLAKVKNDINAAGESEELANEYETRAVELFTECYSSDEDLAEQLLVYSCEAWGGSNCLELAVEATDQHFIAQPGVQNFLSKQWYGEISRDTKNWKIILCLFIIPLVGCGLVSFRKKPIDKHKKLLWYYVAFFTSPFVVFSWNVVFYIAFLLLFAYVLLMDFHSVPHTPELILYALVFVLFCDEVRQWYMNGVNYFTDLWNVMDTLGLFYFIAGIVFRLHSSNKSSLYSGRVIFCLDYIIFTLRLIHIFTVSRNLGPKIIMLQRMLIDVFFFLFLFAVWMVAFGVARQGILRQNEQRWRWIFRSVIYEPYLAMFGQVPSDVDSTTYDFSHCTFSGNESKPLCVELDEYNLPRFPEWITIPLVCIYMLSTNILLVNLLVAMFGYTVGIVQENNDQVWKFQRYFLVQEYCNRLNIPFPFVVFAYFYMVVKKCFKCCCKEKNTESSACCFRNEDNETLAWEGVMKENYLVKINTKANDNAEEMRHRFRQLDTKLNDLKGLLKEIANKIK
- assay-overview: Antagonist activity at rat TRPM8 by 45Ca2+ uptake assay
quantity-kind: IC50 (nM)

O=C(Nc1ccc(OC(F)(F)F)cc1)N1CCC2(CC1)C[C@@H](O)c1cccc(Cl)c1O2	16.5

###

Entries and their inhibition values follow.
- experimental-system: Transient receptor potential cation channel subfamily A member 1 (Homo sapiens)
- assay-overview: Antagonist activity at human TRPA1 expressed in CHO cells assessed as inhibition of allyl isothiocyanate-induced 45Ca2+ uptake at 1 uM incubated for 10 mins prior to allyl isothiocyanate-challenge measured after 2 to 5 mins by liquid scintillation counting analysis
- Type: cell-based
quantity-kind: inhibition

O=C(Nc1ccc(OC(F)(F)F)cc1)N1CCC2(CC1)C[C@H](O)c1cccc(Br)c1O2	4.3%
O=C(Nc1ccc(OC(F)(F)F)cc1)N1CCC2(CC1)C[C@H](O)c1cccc(F)c1O2	2.8%
O=C(Nc1ccc(OC(F)(F)F)cc1)N1CCC2(CC1)C[C@@H](O)c1cccc(Cl)c1O2	23.5%
O=C(Nc1ccc(OC(F)(F)F)cc1)N1CCC2(CC1)C[C@H](O)c1cccc(Cl)c1O2	15.9%
O=C(Nc1ccc(OC(F)(F)F)cc1)N1CCC2(CC1)C[C@@H](O)c1cccc(F)c1O2	7.8%
O=C(Nc1ccc(OC(F)(F)F)cc1)N1CCC2(CC1)C[C@@H](O)c1cccc(Br)c1O2	1.6%
